Molecular target: DLG4_2, P78352
Sequence (P78352 155-259): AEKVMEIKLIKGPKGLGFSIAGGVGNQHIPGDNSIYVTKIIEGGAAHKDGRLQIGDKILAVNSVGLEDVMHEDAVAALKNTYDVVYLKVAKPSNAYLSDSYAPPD
Experiment: holdup assay
Parameters: key: below the threshold = too weak to quantify, mostly under pKd 3.1 to 4
Conditions: plain residues with an end cap or a label only (N-terminal biotin on a linker: ado-ado)
Consider the following binders; for each one, report its pKd.
Please respond with just the number, no unit label.

Entry under review: DPAESMESLV [PTPRG, P23470] . Reported pKd?
5.01

Same question, NTLNRKTTPV [CACNG8, Q8WXS5] this time
4.94

Same question, RFQQRMQTHV [KIRREL1, Q96J84] this time
4.64

Same question, KSRVAFFEEL [NF2, P35240] this time
3.78

Same question, STKRKLASAV [NCF1, P14598] this time
4.51
